# experimental-protocol: Half life in Sprague-Dawley rat at 10 mg/kg, ig measured for 15 min to 72 hrs by LC-MS/MS analysis
# Assay type: ADME, organism-based
# test-conditions: in vivo, po
recorded-endpoint: half-life (h)
Number only, in h; omit the unit.

(Q) Endpoint output: half-life of Nc1nccc(Oc2ccc(Nc3nccc4[nH]cc(-c5ccc(F)cc5)c(=O)c34)cc2F)c1Cl . Value?
(A) 1

* * *

# experimental-protocol: Cmax in Sprague-Dawley rat at 2.5 mg/kg, iv measured for 5 min to 72 hrs by LC-MS/MS analysis
# Format: ADME, organism-based
# Parameters: dose 2.5 mg/kg, route intravenous
# test-conditions: in vivo
recorded-endpoint: Cmax (ng/mL)
# output: bare number, implied unit ng/mL

(Q) Need Cmax of Nc1nccc(Oc2ccc(Nc3nccc4[nH]cc(-c5ccc(F)cc5)c(=O)c34)cc2F)c1Cl , thanks.
(A) 16400

* * *

# Organism: Homo sapiens
# experimental-protocol: Selectivity index, ratio of IC50 for purified recombinant VEGFR2 kinase domain (unknown origin) to IC50 for purified recombinant MET kinase domain (unknown origin)
Field: Ratio IC50. Provide a value for each of the compounds that follow.
Hey, just send me the number, nothing else.

(Q) Endpoint output: Ratio IC50 of CCn1cc(-c2ccc(F)cc2)c(=O)c2c(Nc3ccc(Oc4ccnc(NC(=O)C5CC5)c4)c(F)c3)nccc21 . Value?
(A) 88

(Q) // returns reported Ratio IC50 for input Cn1cc(-c2ccc(F)cc2)c(=O)c2c(Nc3ccc(Oc4ccnc(NC(=O)C5CC5)c4)c(F)c3)nccc21
(A) 3230

* * *

# experimental-protocol: Oral bioavailability in Sprague-Dawley rat at 5.0 mg/kg, ig measured for 15 min to 72 hrs by LC-MS/MS analysis
# Assay type: ADME, organism-based
# test-conditions: in vivo
recorded-endpoint: bioavailability
A bare number is not enough; add the unit after it.

(Q) Tell me the measured bioavailability of Cn1cc(-c2ccc(F)cc2)c(=O)c2c(Nc3ccc(Oc4ccnc(NC(=O)C5CC5)c4)c(F)c3)nccc21 , please.
(A) 58%

(Q) Fill in: bioavailability of O=C(Nc1cc(Oc2ccc(Nc3nccc4[nH]cc(-c5ccc(F)cc5)c(=O)c34)cc2F)ccn1)C1CC1 is ___
(A) 63%

* * *

# experimental-protocol: Mean residence time in Sprague-Dawley rat at 1.0 mg/kg, iv measured for 5 min to 72 hrs by LC-MS/MS analysis
# Assay type: ADME, organism-based
# test-conditions: in vivo
So I've got a bunch of compounds here, and I need their MRT values.
Respond numerically; units are h and should not be typed.

(Q) What value of measured MRT is listed for O=C(Nc1cc(Oc2ccc(Nc3nccc4[nH]cc(-c5ccc(F)cc5)c(=O)c34)cc2F)ccn1)C1CC1 ?
(A) 8.5

(Q) Give its MRT value. Item: Cn1cc(-c2ccc(F)cc2)c(=O)c2c(Nc3ccc(Oc4ccnc(NC(=O)C5CC5)c4)c(F)c3)nccc21
(A) 10.8

* * *

# experimental-protocol: Clearance in Sprague-Dawley rat at 10 mg/kg, ig measured for 15 min to 72 hrs by LC-MS/MS analysis
# Assay type: ADME, organism-based
# test-conditions: in vivo, po
recorded-endpoint: CL/F (mL/min/kg)
Report as a plain number; the unit mL/min/kg is understood.

(Q) Fill in: CL/F of Nc1nccc(Oc2ccc(Nc3nccc4[nH]cc(-c5ccc(F)cc5)c(=O)c34)cc2F)c1Cl is ___
(A) 83.3

The reported measurements were obtained from ChEMBL document CHEMBL4373740.
